test system: HEK293 cells; assay: HEK293 cell viability (resazurin) assay; assay type: cell-based, Human; conditions: Homo sapiens, HEK293, 72 h
property.label: IC50
Respond with the figure and its unit, in that order.

Query block: Give the reported IC50 for CN(C)CCNC(=O)c1cc(NC(=O)c2cc(NC(=O)c3ccc(/C=C/c4cnc5ccccc5c4)cc3)cn2C)cn1C.O=C(O)C(F)(F)F [S-MGB-248] (system: HEK293 cells).
Result block: 3.13 µM

Query block: Give the reported IC50 for CC(C)CCc1sc(NC(=O)c2cc(NC(=O)c3ccc(/C=C/c4ccc(C(F)(F)F)cc4)cc3)cn2C)nc1C(=O)NCCCN(C)C.O=C(O)C(F)(F)F [S-MGB-377] (system: HEK293 cells).
Result block: 4.3 µM

Query block: Give the reported IC50 for CC(C)CCc1sc(NC(=O)c2cc(NC(=O)c3ccc(/C=C/c4ccc(F)cc4)cc3)cn2C)nc1C(=O)NCCCN(C)C.O=C(O)C(F)(F)F [S-MGB-379] (system: HEK293 cells).
Result block: 8.34 µM

Query block: Give the reported IC50 for CC(C)n1cc(NC(=O)c2cc(NC(=O)c3ccc(/C=C/c4cnc5ccccc5c4)cc3)cn2C)cc1C(=O)NCCN1CCOCC1.O=C(O)C(F)(F)F [S-MGB-192] (system: HEK293 cells).
Result block: 3.19 µM

Query block: Give the reported IC50 for CCc1nc(N)nc(N)c1-c1ccc(Cl)cc1 [Pyrimeth-amine, pyrimethamine, reference compound] (system: HEK293 cells).
Result block: 3.98 µM

Query block: Give the reported IC50 for CN(C)c1ccc(/C=C/c2ccc(C(=O)Nc3cc(C(=O)Nc4cc(C(=O)NCCN5CCOCC5)n(C)c4)n(C)c3)cn2)cc1.O=C(O)C(F)(F)F [S-MGB-245] (system: HEK293 cells).
Result block: 2.75 µM

---

Can you tell me inhibition at 80 µM for the items I'm about to list?
system: HEK293 cells; test: HEK293 cell viability (resazurin) assay; type: cell-based, Human; settings: Homo sapiens, HEK293; 80 μM; 72 h
Answer format: numeric, % implied, no suffix.

Query block: Field request: inhibition at 80 µM | item: Cn1cc(NC(=O)c2cc(NC(=O)c3ccc(/C=C/c4ccc5nsnc5c4)cc3)cn2C)cc1C(=O)NCCN1CCOCC1.O=C(O)C(F)(F)F [S-MGB-188]
Result block: 86

Query block: Field request: inhibition at 80 µM | item: COc1ccc(/C=C/c2ccc(C(=O)Nc3cc(C(=O)Nc4cc(C(=O)NCCC(=N)N)n(C)c4)n(C)c3)cc2)cc1.O=C(O)C(F)(F)F [S-MGB-367]
Result block: 81

Query block: Field request: inhibition at 80 µM | item: Cn1cc(NC(=O)c2cc(NC(=O)c3ccc(NC(=O)c4ccc(F)cc4)cc3)cn2C)cc1C(=O)NCCC(=N)N.O=C(O)C(F)(F)F [S-MGB-388]
Result block: 93

---

tested on: HEK293 cells; test: HEK293 cell viability (resazurin) assay; type: cell-based, Human; details: ratio of HEK293 IC50 (or relative IC50) to P. falciparum 3D7 IC50
Can you tell me SI, HEK293/3D7 for the items I'm about to list?
Lab note: write the figure by itself, no unit.

Query block: Field request: SI, HEK293/3D7 | item: CC(C)CCc1sc(NC(=O)c2cc(NC(=O)c3ccc(/C=C/c4cccc(F)c4)cc3)cn2C)nc1C(=O)NCCCN(C)C.O=C(O)C(F)(F)F
Result block: 70

Query block: Field request: SI, HEK293/3D7 | item: CC(C)CCc1sc(NC(=O)c2cc(NC(=O)c3ccc(/C=C/c4ccc(F)cc4)cc3)cn2C)nc1C(=O)NCCCN(C)C.O=C(O)C(F)(F)F
Result block: 56

Query block: Field request: SI, HEK293/3D7 | item: COc1ccc(C[C@H](N)C(=O)N[C@H]2[C@@H](O)[C@H](n3cnc4c(N(C)C)ncnc43)O[C@@H]2CO)cc1 [Puromycin, puromycin, reference compound]
Result block: 9

Where these numbers come from: paper PMC11528320
